Tested on: apyrase
Protocol Description: Screen for apyrase inhibitors (Method 1, in vitro phosphate-release absorbance assay)
Type: biochemical
Experimental Context: inhibitor conc at 1 mM stock, 1 hr room temperature, absorbance 630 nm; rounded average of two assay results
% Inhibition of Apyrase values by entry
Could you give me the number in %? Just the number is fine.

| Compound | Measurement |
| --- | --- |
| COc1ccc(NS(=O)(=O)c2cccc(C(=O)Nc3ccc(Br)cc3)c2)cc1 | 43 |
| O=C(Nc1ccccc1NS(=O)(=O)c1ccc2oc(=O)ccc2c1)c1ccc(Cl)cc1 | 8 |

Entry COC(=O)c1c(C)[nH]c(C(=O)Nc2cccc(S(=O)(=O)Nc3cccc(C(F)(F)F)c3)c2)c1C : reported % Inhibition of Apyrase = ?
57

###

Tested on: apyrase
Protocol Description: Screen for apyrase inhibitors (Method 1, in vitro phosphate-release absorbance assay)
Type: biochemical
Experimental Context: inhibitor conc at 1 mM stock, 1 hr room temperature, absorbance 630 nm; rounded average of two assay results
Hi, to clarify the labels: Satisfied covers % Inhibition of Apyrase from 60% upward, Not satisfied covers anything below 60%.

| Compound | Assigned Label |
| --- | --- |
| CN(c1ccccc1)S(=O)(=O)c1ccccc1C(=O)Nc1ccc(C#N)cc1 [I-811] | Satisfied |

Please check the record Cc1ccc(F)cc1S(=O)(=O)Nc1cccc(C(=O)Nc2cccc(C#N)c2)c1 and state if its % Inhibition of Apyrase is at or above 60%.
Satisfied

How about O=C(Nc1ccc2[nH]nnc2c1)c1ccc(S(=O)(=O)Nc2ccc(Cl)cc2)cc1 ?
Satisfied

# iterate: O=C(Nc1cccc(S(=O)(=O)Nc2cccc(C(F)(F)F)c2)c1)c1ccsc1
Not satisfied

Likewise for COc1ccc(NC(=O)c2cccc(S(=O)(=O)Nc3ccc(Br)cc3)c2)cc1 ?
Not satisfied

# iterate: Cc1ccc(S(C)(=O)=O)cc1C(=O)Nc1cccc(NS(=O)(=O)c2ccc(Cl)cc2)c1
Not satisfied

And for N#CCc1ccc(NC(=O)c2cccc(S(=O)(=O)Nc3ccc4c(c3)OCO4)c2)cc1 ?
Not satisfied

###

Tested on: apyrase
Protocol Description: Screen for apyrase inhibitors (Method 1, in vitro phosphate-release absorbance assay)
Format: biochemical
Experimental Context: inhibitor conc at 1 mM stock, 1 hr room temperature, absorbance 630 nm; rounded average of two assay results
Threshold rule: % Inhibition of Apyrase greater than or equal to 60% is 1.0; below that, 0.0.

These recorded examples may help you get a feel for the data.
| Molecule | Target Or System | Assigned Label |
| --- | --- | --- |
| COc1ccc([N+](=O)[O-])cc1NC(=O)c1cccc(S(=O)(=O)Nc2cc(C(F)(F)F)ccc2Cl)c1 | apyrase | 1.0 |
| O=C(Nc1cccc(S(=O)(=O)N2CCOCC2)c1)c1ccc(S(=O)(=O)Nc2ccc(Cl)cc2)cc1 | apyrase | 0.0 |
| N#Cc1cccc(NC(=O)c2ccc(S(=O)(=O)Nc3ccc(Cl)cc3)cc2)c1 | apyrase | 1.0 |
| COc1ccc(NS(=O)(=O)c2ccc(NC(=O)c3ccc(Cl)cc3)cc2)cc1 | apyrase | 0.0 |
| O=C(c1cccc(S(=O)(=O)Nc2ccc(OCc3ccccc3)cc2)c1)N1CCc2ccccc21 | apyrase | 0.0 |
| O=C(Nc1ccc2c(c1)OCO2)c1ccc(NS(=O)(=O)c2ccc(F)cc2)cc1 | apyrase | 0.0 |
| CN(c1ccccc1)S(=O)(=O)c1ccccc1C(=O)Nc1ccc(C(N)=O)cc1 | apyrase | 0.0 |
| Cc1cc(C(=O)Nc2cccc(S(=O)(=O)Nc3ccccc3F)c2)no1 | apyrase | 0.0 |
| CCOc1ccc(NS(=O)(=O)c2cccc(NC(=O)c3ccncc3)c2)cc1Br | apyrase | 0.0 |
| Cc1cc(C)cc(NC(=O)c2cccc(S(=O)(=O)Nc3ccc4c(c3)OCO4)c2)c1 | apyrase | 1.0 |

Answer whether % Inhibition of Apyrase of COc1ccc([N+](=O)[O-])cc1NS(=O)(=O)c1cccc(C(=O)Nc2ccc(F)c([N+](=O)[O-])c2)c1 [I-430] is greater than or equal to 60%.
1.0

Another molecule to check: O=C(Nc1ccc(F)cc1)c1cccc(S(=O)(=O)N2CCc3ccccc32)c1
0.0

And the next one, COc1ccc(C(=O)Nc2cccc(S(=O)(=O)Nc3ccc(Br)cc3)c2)cc1OC ?
0.0

Also Cc1ccc(S(=O)(=O)Nc2cccc(C(=O)Nc3nc4ccccc4[nH]3)c2)cc1F ?
0.0

Also check CCOc1ccc(NS(=O)(=O)c2c(C)cccc2NC(=O)c2ccc(Oc3ccccc3)cc2)cc1
0.0

Note, next up: Cc1ccc(S(=O)(=O)Nc2ccc(F)cc2)cc1C(=O)N1c2ccccc2CC1C (centres unmarked)
0.0

Query COc1ccc(NC(=O)c2ccc(S(=O)(=O)Nc3cccc(C(F)(F)F)c3)cc2)c(OC)c1 next
0.0

Also COc1ccccc1N(C)S(=O)(=O)c1ccc(C(=O)N2CCSc3ccccc32)cc1 , if possible.
0.0

Can you check CCOC(=O)c1sc(NC(=O)c2cccc(S(=O)(=O)Nc3ccc(F)cc3)c2)cc1C next?
1.0

What about this molecule? O=C(Nc1cccc(S(=O)(=O)Nc2ccc(Br)cc2)c1)c1ccsc1 [I-207]
1.0

###

System: apyrase
Protocol Description: Screen for apyrase inhibitors (Method 1, in vitro phosphate-release absorbance assay)
Assay type: biochemical
Experimental Context: inhibitor conc at 1 mM stock, 1 hr room temperature, absorbance 630 nm; rounded average of two assay results
Classification field: enter True for % Inhibition of Apyrase values not below 20%, False for values below it.

Known results for compounds:
| Compound | Assigned Label |
| --- | --- |
| Cc1cccc(NS(=O)(=O)c2ccc(C(=O)Nc3cccc(C#N)c3)cc2)c1C [I-206] | True |
| O=C(Nc1cccc(S(=O)(=O)Nc2ccc(Br)cc2)c1)c1ccc2ncsc2c1 | True |
| CC(=O)Nc1ccc(NC(=O)c2ccc(NS(=O)(=O)c3ccc(Br)cc3)cc2)cc1 | False |

Is it the case that Cc1ccc(C)c(S(=O)(=O)Nc2ccc(C(=O)Nc3cccc(C#N)c3)cc2)c1 has % Inhibition of Apyrase reaching or exceeding 20%?
True

Consider next the compound COc1cccc(NC(=O)c2ccc(Cl)c(S(=O)(=O)N3CCc4ccccc43)c2)c1 in the same way.
True

###

Test system: apyrase
Protocol Description: Screen for apyrase inhibitors (Method 1, in vitro phosphate-release absorbance assay)
Assay type: biochemical
Experimental Context: inhibitor conc at 1 mM stock, 1 hr room temperature, absorbance 630 nm; rounded average of two assay results
Observable: % Inhibition of Apyrase (%)
Answer in %, number only, no unit symbol.

Look over these answered cases.
| Compound | Target Or System | Reading Unit | % Inhibition of Apyrase |
| --- | --- | --- | --- |
| CC1Cc2ccccc2N1S(=O)(=O)c1cccc(C(=O)Nc2ccc(Oc3ccccc3)cc2)c1 (centres unmarked) | apyrase | % | 58 |
| O=C(Nc1cccc(C(F)(F)F)c1)c1cccc(NS(=O)(=O)c2ccc(Br)c(C(=O)O)c2)c1 | apyrase | % | 47 |
| O=C(Nc1cccc(S(=O)(=O)Nc2ccc(Br)cc2)c1)c1ccsc1 [I-701] | apyrase | % | 79 |
| COc1ccccc1NC(=O)c1ccc(NS(=O)(=O)c2cccc(C#N)c2)cc1 | apyrase | % | 47 |

Please give the measured % Inhibition of Apyrase for this compound: O=C(Nc1nc2ccccc2[nH]1)c1cccc(NS(=O)(=O)c2ccc3c(c2)OCCCO3)c1
58

###

Tested on: apyrase
Protocol Description: Screen for apyrase inhibitors (Method 1, in vitro phosphate-release absorbance assay)
Assay type: biochemical
Experimental Context: inhibitor conc at 1 mM stock, 1 hr room temperature, absorbance 630 nm; rounded average of two assay results
Observable: % Inhibition of Apyrase (%)
Form entry: value (%) — number only.

| Molecule | Observable | Reading Unit | Measurement |
| --- | --- | --- | --- |
| Cc1cc(Br)ccc1NC(=O)c1ccc(NS(=O)(=O)c2ccc(F)cc2)cc1 [I-933] | % Inhibition of Apyrase | % | 53 |

Query (molecule): CC(=O)c1cccc(NC(=O)c2ccc(S(=O)(=O)Nc3ccc(C)cc3)cc2)c1 [I-398] ; field requested: % Inhibition of Apyrase
44

Subsequent entry: COc1ccc(NS(=O)(=O)c2cccc(NC(=O)c3cccs3)c2)cc1 [I-771]
6

# repeat for CC(=O)Nc1ccc(NC(=O)c2cccc(S(=O)(=O)Nc3ccc(Br)cc3)c2)cc1 [I-47]
12

What do you have for Cc1cc(NC(=O)c2cccc(NS(=O)(=O)c3ccc(F)c(F)c3)c2)ccc1Br [I-191] ?
76

Consider next the molecule O=C(c1cccc(S(=O)(=O)N2CCCc3ccccc32)c1)N1CCc2ccccc21 [I-485] in the same way.
58

###

Each entry below lists one item and its recorded % Inhibition of Apyrase value.
Test system: apyrase
Protocol Description: Screen for apyrase inhibitors (Method 1, in vitro phosphate-release absorbance assay)
Format: biochemical
Experimental Context: inhibitor conc at 1 mM stock, 1 hr room temperature, absorbance 630 nm; rounded average of two assay results
Description: Apyrase inhibitors useful as enhancers of pesticidal activity are assessed using an in vitro assay. […]
Give just the number in %; leave the unit off.

// known answers, use as guide
| Compound | % Inhibition of Apyrase [%] |
| --- | --- |
| CN(c1ccccc1)S(=O)(=O)c1ccc(C(=O)N2CC(=O)Nc3ccccc32)cc1 | 32 |
| COc1ccc(NC(=O)c2ccc(NS(=O)(=O)c3ccc4c(c3)OCCO4)cc2)cc1 | 50 |
| O=C(c1ccc(S(=O)(=O)Nc2ccccc2)cc1)N1CCCc2ccccc21 | 45 |
| COc1ccc(S(=O)(=O)N2CCc3ccccc32)cc1C(=O)Nc1ccc2c(c1)OCO2 | 56 |
| O=C(Nc1ccc(F)c(F)c1)c1cccc(S(=O)(=O)N2CCc3ccccc32)c1 | 59 |

What value of measured % Inhibition of Apyrase is listed for O=C(Nc1ccc(OC(F)F)c(Cl)c1)c1cccc(S(=O)(=O)Nc2ccc3c(c2)OCO3)c1 ?
77
